Protein target, amino acids: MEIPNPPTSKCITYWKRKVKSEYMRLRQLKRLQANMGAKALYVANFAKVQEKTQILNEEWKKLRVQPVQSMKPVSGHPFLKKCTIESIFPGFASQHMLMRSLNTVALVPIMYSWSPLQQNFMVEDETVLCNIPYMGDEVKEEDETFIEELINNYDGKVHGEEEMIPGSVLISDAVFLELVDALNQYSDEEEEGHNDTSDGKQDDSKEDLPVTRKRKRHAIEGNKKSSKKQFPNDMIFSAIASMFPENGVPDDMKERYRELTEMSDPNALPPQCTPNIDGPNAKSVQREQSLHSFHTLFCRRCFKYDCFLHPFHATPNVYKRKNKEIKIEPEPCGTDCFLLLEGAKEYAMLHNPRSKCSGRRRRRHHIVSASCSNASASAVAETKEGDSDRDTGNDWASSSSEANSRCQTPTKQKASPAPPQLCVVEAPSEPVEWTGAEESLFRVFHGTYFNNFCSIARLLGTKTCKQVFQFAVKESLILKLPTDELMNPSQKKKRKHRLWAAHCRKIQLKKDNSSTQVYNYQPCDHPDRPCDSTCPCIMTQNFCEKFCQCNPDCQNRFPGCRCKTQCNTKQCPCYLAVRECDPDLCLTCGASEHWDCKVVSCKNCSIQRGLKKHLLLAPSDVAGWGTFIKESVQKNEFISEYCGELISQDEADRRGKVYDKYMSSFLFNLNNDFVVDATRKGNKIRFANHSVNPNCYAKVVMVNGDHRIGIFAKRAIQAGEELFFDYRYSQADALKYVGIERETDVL
measured.metric: IC50 (nM)

>>> result("CCC(CC)n1ccc2c(C(=O)NCc3c(C)cc(C)[nH]c3=O)cc(C#N)cc21")
13

###

Test system: MCF7
Test: cells
Assay type: functional, cell-based
Details: Homo sapiens, MCF7, 24 h
# maps each entry to its IC50
measured.metric: IC50 (µM)

>>> result("COc1ccc(C2SCCC(=O)N2Nc2nc3cc(C)c(C)cc3[nH]2)cc1 (stereo unspecified)")
59.7
>>> result("O=C1CCSC(c2ccc(Cl)cc2)N1Nc1nc2ccccc2[nH]1 (stereo unspecified)")
74.3
>>> result("O=C1CCSC(c2ccccc2Cl)N1Nc1nc2ccccc2[nH]1 (stereo unspecified)")
20.3
>>> result("O=C1CCSC(c2ccc([N+](=O)[O-])cc2)N1Nc1nc2ccccc2[nH]1 (stereo unspecified)")
47.6
>>> result("COc1ccc(C2SCCC(=O)N2Nc2nc3ccccc3[nH]2)cc1 (stereo unspecified)")
16.6
>>> result("COc1ccc(C2SCCC(=O)N2Nc2nc3cc(Cl)c(Cl)cc3[nH]2)cc1 (stereo unspecified)")
76.8

###

Tested on: PC-3
Assay: cells
Type: functional, cell-based
Settings: Homo sapiens
measured.metric: IC50 (nM)

>>> result("Nc1nccc2c1ncn2[C@@H]1C=C(CO)[C@@H](O)[C@H]1O")
190

###

Test system: KARPAS-422
Test: cells
Assay type: functional, cell-based
Details: Homo sapiens
pIC50: −log10 of the molar value.
The reader will find reported pIC50 values listed item by item below.
measured.metric: pIC50

>>> result("COc1cc(C)[nH]c(=O)c1CN1CCn2ccc3cc(-c4c(C)noc4C)c(Cl)c(c32)C1=O")
7.28
>>> result("C[C@H](C(=O)NC1COC1)c1cnc(NC[C@H]2CC[C@H](Nc3ccc4ccnc(Cl)c4n3)CC2)nc1")
9.52
